Cited source for all entries: the supplement of paper PMC6757056

B1: library; a variant is named by its letters at N, in order (parent)
chain: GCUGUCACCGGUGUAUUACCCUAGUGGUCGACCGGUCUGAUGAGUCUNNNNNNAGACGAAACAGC

Variants of: B1
method-summary: FACS-Seq fitted mean relative fluorescence mCherry/BFP with ligand (log10 relative fluorescence); ligand: hypoxanthine (xanthine aptamer); ligand concentration (+) FACS-Seq: 5 mM; higher = higher reporter protein expression
reported-conditions: HEK293T, ligand present: yes
Measured FACS-Seq fitted mean (log10), listed per entry.

# chain-sequence, FACS-Seq fitted mean (log10)
measured = [
    ("GCUGUCACCGGUGUAUUACCCUAGUGGUCGACCGGUCUGAUGAGUCUGUACAGAGACGAAACAGC [GUACAG]", 0.818),
    ("GCUGUCACCGGUGUAUUACCCUAGUGGUCGACCGGUCUGAUGAGUCUGCGUAUAGACGAAACAGC [GCGUAU]", 0.824),
    ("GCUGUCACCGGUGUAUUACCCUAGUGGUCGACCGGUCUGAUGAGUCUCAGAACAGACGAAACAGC [CAGAAC]", 0.407),
    ("GCUGUCACCGGUGUAUUACCCUAGUGGUCGACCGGUCUGAUGAGUCUUAGUGGAGACGAAACAGC [UAGUGG]", 0.511),
    ("GCUGUCACCGGUGUAUUACCCUAGUGGUCGACCGGUCUGAUGAGUCUUACGAAAGACGAAACAGC [UACGAA]", 0.191),
    ("GCUGUCACCGGUGUAUUACCCUAGUGGUCGACCGGUCUGAUGAGUCUACCAGUAGACGAAACAGC [ACCAGU]", -0.721),
    ("GCUGUCACCGGUGUAUUACCCUAGUGGUCGACCGGUCUGAUGAGUCUGGGGCUAGACGAAACAGC [GGGGCU]", -0.677),
    ("GCUGUCACCGGUGUAUUACCCUAGUGGUCGACCGGUCUGAUGAGUCUGCAAUAAGACGAAACAGC [GCAAUA]", 0.466),
    ("GCUGUCACCGGUGUAUUACCCUAGUGGUCGACCGGUCUGAUGAGUCUACGGGAAGACGAAACAGC [ACGGGA]", 0.623),
    ("GCUGUCACCGGUGUAUUACCCUAGUGGUCGACCGGUCUGAUGAGUCUCAGAGGAGACGAAACAGC [CAGAGG]", 0.702),
    ("GCUGUCACCGGUGUAUUACCCUAGUGGUCGACCGGUCUGAUGAGUCUUACCCCAGACGAAACAGC [UACCCC]", 0.523),
    ("GCUGUCACCGGUGUAUUACCCUAGUGGUCGACCGGUCUGAUGAGUCUUGAACAAGACGAAACAGC [UGAACA]", 0.802),
    ("GCUGUCACCGGUGUAUUACCCUAGUGGUCGACCGGUCUGAUGAGUCUAGGCCAAGACGAAACAGC [AGGCCA]", 0.607),
    ("GCUGUCACCGGUGUAUUACCCUAGUGGUCGACCGGUCUGAUGAGUCUGUCAUGAGACGAAACAGC [GUCAUG]", 0.491),
    ("GCUGUCACCGGUGUAUUACCCUAGUGGUCGACCGGUCUGAUGAGUCUAACGUAAGACGAAACAGC [AACGUA]", 0.516),
    ("GCUGUCACCGGUGUAUUACCCUAGUGGUCGACCGGUCUGAUGAGUCUAUGUUUAGACGAAACAGC [AUGUUU]", 0.43),
    ("GCUGUCACCGGUGUAUUACCCUAGUGGUCGACCGGUCUGAUGAGUCUGACCGUAGACGAAACAGC [GACCGU]", 0.698),
    ("GCUGUCACCGGUGUAUUACCCUAGUGGUCGACCGGUCUGAUGAGUCUGGGGGCAGACGAAACAGC [GGGGGC]", 0.468),
    ("GCUGUCACCGGUGUAUUACCCUAGUGGUCGACCGGUCUGAUGAGUCUGAAAACAGACGAAACAGC [GAAAAC]", 0.271),
    ("GCUGUCACCGGUGUAUUACCCUAGUGGUCGACCGGUCUGAUGAGUCUUUGAGCAGACGAAACAGC [UUGAGC]", 0.129),
    ("GCUGUCACCGGUGUAUUACCCUAGUGGUCGACCGGUCUGAUGAGUCUUCCUGGAGACGAAACAGC [UCCUGG]", 0.518),
    ("GCUGUCACCGGUGUAUUACCCUAGUGGUCGACCGGUCUGAUGAGUCUAGGACGAGACGAAACAGC [AGGACG]", 0.567),
    ("GCUGUCACCGGUGUAUUACCCUAGUGGUCGACCGGUCUGAUGAGUCUUCUGGGAGACGAAACAGC [UCUGGG]", 0.368),
    ("GCUGUCACCGGUGUAUUACCCUAGUGGUCGACCGGUCUGAUGAGUCUGCAUCGAGACGAAACAGC [GCAUCG]", 0.532),
    ("GCUGUCACCGGUGUAUUACCCUAGUGGUCGACCGGUCUGAUGAGUCUGCUUUGAGACGAAACAGC [GCUUUG]", 0.36),
    ("GCUGUCACCGGUGUAUUACCCUAGUGGUCGACCGGUCUGAUGAGUCUGCUUUAAGACGAAACAGC [GCUUUA]", 0.795),
    ("GCUGUCACCGGUGUAUUACCCUAGUGGUCGACCGGUCUGAUGAGUCUCCCAAAAGACGAAACAGC [CCCAAA]", 0.617),
    ("GCUGUCACCGGUGUAUUACCCUAGUGGUCGACCGGUCUGAUGAGUCUUCAAGAAGACGAAACAGC [UCAAGA]", 0.599),
    ("GCUGUCACCGGUGUAUUACCCUAGUGGUCGACCGGUCUGAUGAGUCUAAAUAUAGACGAAACAGC [AAAUAU]", -0.451),
    ("GCUGUCACCGGUGUAUUACCCUAGUGGUCGACCGGUCUGAUGAGUCUGAUCAUAGACGAAACAGC [GAUCAU]", 0.521),
    ("GCUGUCACCGGUGUAUUACCCUAGUGGUCGACCGGUCUGAUGAGUCUCGGAUUAGACGAAACAGC [CGGAUU]", 0.244),
    ("GCUGUCACCGGUGUAUUACCCUAGUGGUCGACCGGUCUGAUGAGUCUGAUGACAGACGAAACAGC [GAUGAC]", 0.526),
    ("GCUGUCACCGGUGUAUUACCCUAGUGGUCGACCGGUCUGAUGAGUCUCCAGAAAGACGAAACAGC [CCAGAA]", 0.631),
    ("GCUGUCACCGGUGUAUUACCCUAGUGGUCGACCGGUCUGAUGAGUCUAACAGGAGACGAAACAGC [AACAGG]", 0.57),
    ("GCUGUCACCGGUGUAUUACCCUAGUGGUCGACCGGUCUGAUGAGUCUGGAAGAAGACGAAACAGC [GGAAGA]", 0.576),
    ("GCUGUCACCGGUGUAUUACCCUAGUGGUCGACCGGUCUGAUGAGUCUAAGAAUAGACGAAACAGC [AAGAAU]", 0.58),
    ("GCUGUCACCGGUGUAUUACCCUAGUGGUCGACCGGUCUGAUGAGUCUCUUGAAAGACGAAACAGC [CUUGAA]", 0.182),
    ("GCUGUCACCGGUGUAUUACCCUAGUGGUCGACCGGUCUGAUGAGUCUUCCAGUAGACGAAACAGC [UCCAGU]", 0.502),
    ("GCUGUCACCGGUGUAUUACCCUAGUGGUCGACCGGUCUGAUGAGUCUUGUUGUAGACGAAACAGC [UGUUGU]", 0.57),
    ("GCUGUCACCGGUGUAUUACCCUAGUGGUCGACCGGUCUGAUGAGUCUAGCAACAGACGAAACAGC [AGCAAC]", 0.107),
    ("GCUGUCACCGGUGUAUUACCCUAGUGGUCGACCGGUCUGAUGAGUCUAUGCUAAGACGAAACAGC [AUGCUA]", 0.706),
    ("GCUGUCACCGGUGUAUUACCCUAGUGGUCGACCGGUCUGAUGAGUCUUUAUACAGACGAAACAGC [UUAUAC]", 0.632),
    ("GCUGUCACCGGUGUAUUACCCUAGUGGUCGACCGGUCUGAUGAGUCUGGGAAAAGACGAAACAGC [GGGAAA]", 0.428),
    ("GCUGUCACCGGUGUAUUACCCUAGUGGUCGACCGGUCUGAUGAGUCUGUGUCGAGACGAAACAGC [GUGUCG]", 0.628),
    ("GCUGUCACCGGUGUAUUACCCUAGUGGUCGACCGGUCUGAUGAGUCUGCGGGUAGACGAAACAGC [GCGGGU]", 0.735),
    ("GCUGUCACCGGUGUAUUACCCUAGUGGUCGACCGGUCUGAUGAGUCUCAUGAUAGACGAAACAGC [CAUGAU]", 0.333),
]
